# testedSystem: T1, human TREM2 expressed on cells (human, UniProt Q9NZC2 19-230)
# T1 construct: BW5147.G.1.4 cells stably expressing human TREM2 together with Dap12, or endogenous TREM2 of primary human myeloid cells; also called huT2 BW; hTREM2 expressing cell line
# T1 sequence: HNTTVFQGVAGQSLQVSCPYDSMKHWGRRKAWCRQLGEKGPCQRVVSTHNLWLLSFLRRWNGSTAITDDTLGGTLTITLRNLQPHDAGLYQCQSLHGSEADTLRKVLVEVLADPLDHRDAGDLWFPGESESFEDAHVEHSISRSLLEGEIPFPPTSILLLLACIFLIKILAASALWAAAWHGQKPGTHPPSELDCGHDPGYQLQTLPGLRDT
# assaySummary: FACS, hTREM2 BW cells
measure: Kd (nM)
Numbers only, in nM.

binder	measure	recordedResult
AL2p-43 (antibody, V domains shown, Fab and IgG formats under one id) VH: QVQLVQSGAEVKKPGSSVKVSCKASGYAFSSHWMNWVRQAPGQGLEWMGRIYPGGGDTNYARKFRGRVTITADESTSTAYMELSSLRSEDTAVYYCARLLRNQPGASYAMDYWGQGTLVTVSS VL: GVVMTQTPLSLSVTPGQPASISCRSSRSLVHSNRYTYLHWYLQKPGQSPQLLIYKVSNRRSGVPDRFSGSGSGTDFTLKISRVEAEDVGVYYCSQSTRVPYTFGQGTKLEIK	Kd	5.01
AL2p-51 (antibody, V domains shown, Fab and IgG formats under one id) VH: QVQLVQSGAEVKKPGSSVKVSCKASGYAFSSHWMNWVRQAPGQGLEWMGRIYPGEGDTNYAQKFHGRVTITADESTSTAYMELSSLRSEDTAVYYCARLLRNQPGESYAMDYWGQGTLVTVSS VL: DVVMTQTPLSLSVTPGQPASISCRTSQSLVHSNQYTYLHWYLQKPGQSPQLLIYKVSNRVSGVPDRFSGSGSGTDFTLKISRVEAEDVGVYYCSQSTRVPYTFGQGTKLEIK	Kd	1.92
AL2p-7 (antibody, V domains shown, Fab and IgG formats under one id) VH: QVQLVQSGAEVKKPGSSVKVSCKASGYAFSLSWMNWVRQAPGQGLEWMGRIYPGDGDTNYAQKFRGRVTITADESTSTAYMELSSLRSEDTAVYYCARLLRNQPGESYAMDYWGQGTLVTVSS VL: GVVMTQTPLSLSVTPGQPASISCRSSQSLIHSNGYTYLHWYLQKPGQSPQLLIYKVSNRRSGVPDRFSGSGSGTDFTLKISRVEAEDVGVYYCSQSTRVPYTFGQGTKLEIK	Kd	1.6
AL2p-11 (antibody, V domains shown, Fab and IgG formats under one id) VH: QVQLVQSGAEVKKPGSSVKVSCKASGYAFSSDWMNWVRQAPGQGLEWMGRIYPGDGDTNYARKFQGRVTITADESTSTAYMELSSLRSEDTAVYYCARLLRNQPGESYAMDYWGQGTLVTVSS VL: DVVMTQTPLSLSVTPGQPASISCRSSRSLVHSNGYTYLHWYLQKPGQSPQLLIYKVSNRVSGVPDRFSGSGSGTDFTLKISRVEAEDVGVYYCSQSTRVPYTFGQGTKLEIK	Kd	2.4
AL2p-53 (antibody, V domains shown, Fab and IgG formats under one id) VH: EVQLVQSGAEVKKPGSSVKVSCKASGYAFSSHWMNWVRQAPGQGLEWMGRIYPGEGDTNYAQKFHGRVTITADESTSTAYMELSSLRSEDTAVYYCARLLRNQPGESYAMDYWGQGTLVTVSS VL: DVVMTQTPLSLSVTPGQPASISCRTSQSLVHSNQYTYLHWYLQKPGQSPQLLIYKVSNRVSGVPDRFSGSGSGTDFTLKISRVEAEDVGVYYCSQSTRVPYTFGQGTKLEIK	Kd	1.72

Could you tell me Kd for each of these binders? They are listed below.
1. AL2p-9 (antibody, V domains shown, Fab and IgG formats under one id) VH: QVQLVQSGAEVKKPGSSVKVSCKASGYAFSRSWMNWVRQAPGQGLEWMGRIYPGDGDTNYAQKFQGRVTITADESTSTAYMELSSLRSEDTAVYYCARLLRNQPGASYAMDYWGQGTLVTVSS VL: GVVMTQTPLSLSVTPGQPASISCRTSQSLVHSNGYTYLHWYLQKPGQSPQLLIYKVSNRVSGVPDRFSGSGSGTDFTLKISRVEAEDVGVYYCSQSTRVPYTFGQGTKLEIK
2. AL2p-h77 (antibody, human IgG1, V domains shown, humanized, human IgG1; Fab and IgG formats under one id; also called A2p-h77) VH: QVQLVQSGAEVKKPGASVKVSCKASGYAFSSSWMNWVRQAPGQRLEWIGRIYPGDGDTNYAQKFQGRVTITADTSASTAYMELSSLRSEDTAVYYCARLLRNQPGESYAMDYWGQGTLVTVSS VL: DVVMTQSPDSLAVSLGERATINCRSSQSLVHSNGYTYLHWYQQKPGQSPKLLIYKVSNRFSGVPDRFSGSGSGTDFTLTISSLQAEDVAVYYCSQSTRVPYTFGGGTKVEIK
3. AL2p-31 (antibody, V domains shown, Fab and IgG formats under one id) VH: QVQLVQSGAEVKKPGSSVKVSCKASGYAFSSQWMNWVRQAPGQGLEWMGRIYPGGGDTNYARKFQGRVTITADESTSTAYMELSSLRSEDTAVYYCARLLRNQPGESYAMDYWGQGTLVTVSS VL: GVVMTQTPLSLSVTPGQPASISCRSSQSLVHSNGYTYLHWYLQKPGQSPQLLIYKVSNRRSGVPDRFSGSGSGTDFTLKISRVEAEDVGVYYCSQSTRVPYTFGQGTKLEIK
4. AL2p-56 (antibody, V domains shown, same VH/VL entries as AL2p-55; Fab and IgG formats under one id) VH: EVQLVQSGAEVKKPGSSVKVSCKASGYAFSSHWMNWVRQAPGQGLEWMGRIYPGEGDTNYAQKFHGRVTITADESTSTAYMELSSLRSEDTAVYYCARLLRNKPGESYAMDYWGQGTLVTVSS VL: DVVMTQTPLSLSVTPGQPASISCRTSQSLVHSNAYTYLHWYLQKPGQSPQLLIYKVSNRVSGVPDRFSGSGSGTDFTLKISRVEAEDVGVYYCSQSTRVPYTFGQGTKLEIK
5. AL2p-15 (antibody, V domains shown, Fab and IgG formats under one id) VH: QVQLVQSGAEVKKPGSSVKVSCKASGYAFSSHWMNWVRQAPGQGLEWMGRIYPGDGDTNYAQKFQGRVTITADESTSTAYMELSSLRSEDTAVYYCARLLRNQPGESYAMDYWGQGTLVTVSS VL: GVVMTQTPLSLSVTPGQPASISCRSSSSLVHSNGYTYLHWYLQKPGQSPQLLIYKVSNRKSGVPDRFSGSGSGTDFTLKISRVEAEDVGVYYCSQSTRVPYTFGQGTKLEIK

Reply:
1: 1.1; 2: 3.9; 3: 1; 4: 2.01; 5: 2.2
